Tested on: Staphylococcus aureus (methicillin-resistant and sensitive clinical isolates; ATCC29213)
Assay: MIC by micro broth dilution (CLSI), Staphylococcus aureus
Format: cell-based
Conditions: Standard strain ATCC29213, read-out: MIC
resultType: MIC (µg/mL)

Below, each entry is followed by its recorded MIC result.
C#Cc1ccnc2c(O)c([N+](=O)[O-])ccc12: 128
O=[N+]([O-])c1cc(Cl)c2cc(CN3CCCCC3)cnc2c1O: 16
O=[N+]([O-])c1ccc2c(Cl)ccnc2c1O: 2
Cc1cnc2c(O)c([N+](=O)[O-])cc(C3CC3)c2c1: 4

1 = Cc1c([N+](=O)[O-])c(O)c2ncccc2c1Cl
2 = O=[N+]([O-])c1cc(Cl)c2c(C3CCCCC3)ccnc2c1O
Query: Of 1 and 2 , whose reported MIC is the larger number? Answer with the label corresponding to your selection.
Response: 1
(1: 8 µg/mL, 2: 0.5 µg/mL)

====

System: Bladder cancer cell line UM-UC-3
Assay: Inhibitory activity on cancer cells, CellTiter-Glo viability, UM-UC-3
Format: cell-based
Settings: Homo sapiens, UMUC3, 72 hours treatment
Protocol: HUVEC (purchased from Allcells Biological Technology (Shanghai) Co., Ltd.); UM-UC-3 (ATCC); LNCaP (ATCC); RM-1 (purchased from Nanjing Cobioer Biosciences Co., Ltd.) (1) On the first day, the cells were seeded in a 96-well plate, and the previous medium was poured off. 5 mL of DPBS was added to wash the cells, and then removed by a pipette and discarded. […] New corresponding medium was added, and pipetted to resuspend the cells evenly, and the cells were then counted with an automated cell counter. […]
resultType: IC50 (µM)

P = COCCCOC1CCN(c2ccnc3c(O)c([N+](=O)[O-])cc(Cl)c23)CC1.Cl.Cl [Example 54, dihydrochloride]
Q = CCC(C)OC(=O)N1CCN(c2ccnc3c(O)c([N+](=O)[O-])cc(Cl)c23)CC1 (stereo not shown) [Example 57]
R = O=[N+]([O-])c1cc(Cl)c2c(N3CCC4(CC3)CC4)ccnc2c1O [Example 63]
Query: Which order do the items above take when sorted by IC50 from high to low? I'd appreciate it if you listed the labels in the requested order.
Response: R, P, Q
(R: 7.07 µM, P: 1.42 µM, Q: 0.49 µM)

====

System: Staphylococcus aureus (methicillin-resistant and sensitive clinical isolates; ATCC29213)
Assay: MIC by micro broth dilution (CLSI), Staphylococcus aureus
Format: cell-based
Conditions: standard strain ATCC29213, micro broth dilution, CAMHB, 35±2° C., 20 hours, read-out: MIC Staphylococcus aureus Standard strain ATCC29213
resultType: MIC (µg/mL)

O=[N+]([O-])c1c(Br)c(F)c2cccnc2c1O: 4
O=[N+]([O-])c1c(F)c(F)c2cccnc2c1O: 8

P = O=[N+]([O-])c1cc(Br)c2cccnc2c1O
Q = O=[N+]([O-])c1c(Cl)c(F)c2cccnc2c1O
R = O=[N+]([O-])c1c(F)cc2cccnc2c1O
Query: Returns the items ordered by MIC, from maximum to minimum. I'd appreciate it if you listed the labels in the requested order.
Response: R, P, Q
(R: 128 µg/mL, P: 8 µg/mL, Q: 4 µg/mL)

====

Tested on: Mouse prostate cancer cell line RM1
Test: Inhibitory activity on cancer cells, CellTiter-Glo viability, RM1
Type: cell-based
Settings: 72 hours treatment
pIC50: −log10 of the molar value.
resultType: pIC50

Below, each entry is followed by its recorded pIC50 result.
O=[N+]([O-])c1cc(Cl)c2c(Cl)ccnc2c1O: 5.19
CC(C)(C)C(=O)N1CCN(c2ccnc3c(O)c([N+](=O)[O-])cc(Cl)c23)CC1: 4.92
CCOc1ccnc2c(O)c([N+](=O)[O-])cc(Cl)c12: 5.37
O=[N+]([O-])c1cc(F)c2c(N3CCC(F)(F)CC3)ccnc2c1O: 5.65
O=[N+]([O-])c1cc(F)c2c(OCC3CC3)ccnc2c1O: 5.52

1 = O=[N+]([O-])c1cc(Cl)c2c(N3CCC4(CC3)CC4)ccnc2c1O
2 = O=[N+]([O-])c1ccc2c(F)ccnc2c1O
3 = CCOC(=O)N1CCN(c2ccnc3c(O)c([N+](=O)[O-])cc(Cl)c23)CC1
4 = O=[N+]([O-])c1ccc(O)c2ncccc12 [Nitroxoline, nitroxoline, reference compound]
Query: Returns the items ordered by pIC50, from maximum to minimum. I'd appreciate it if you listed the labels in the requested order.
Response: 3, 4, 1, 2

a = O=[N+]([O-])c1ccc2c(-c3ccccc3)ccnc2c1O
b = O=[N+]([O-])c1ccc2cccnc2c1O
Query: Of a and b , whose reported pIC50 is the larger number? Answer with the label corresponding to your selection.
Response: a
(a: 5.64, b: 5.09)

1 = CCC(C)OC(=O)N1CCN(c2ccnc3c(O)c([N+](=O)[O-])cc(Cl)c23)CC1 (centres unmarked)
2 = O=[N+]([O-])c1cc(Cl)c2c(OCCF)ccnc2c1O
Query: For the pair 1 and 2 , which member has the lower pIC50 number? Answer with the label corresponding to your selection.
Response: 2
(2: 4.97, 1: 5.63)

I = O=[N+]([O-])c1cc(Cl)c2c(N3CCCCC3)ccnc2c1O
II = O=[N+]([O-])c1ccc2c(Cl)c(C3CC3)cnc2c1O
Query: For the pair I and II , which member has the lower pIC50 number? Answer with the label corresponding to your selection.
Response: II

P = CN(C)C(=O)N1CCN(c2ccnc3c(O)c([N+](=O)[O-])ccc23)CC1
Q = CC1CCCCN1c1ccnc2c(O)c([N+](=O)[O-])ccc12 (centres unmarked)
Query: Of P and Q , whose reported pIC50 is the larger number? Answer with the label corresponding to your selection.
Response: Q

====

Tested on: Staphylococcus aureus (methicillin-resistant and sensitive clinical isolates; ATCC29213)
Experiment: MIC by micro broth dilution (CLSI), Staphylococcus aureus
Assay type: cell-based
Conditions: Standard strain ATCC29213, read-out: MIC
resultType: MIC (µg/mL)

CCOC(=O)C1CCN(c2ccnc3c(O)c([N+](=O)[O-])cc(F)c23)CC1: 8

a = O=[N+]([O-])c1ccc2cc(CN3CCOCC3)cnc2c1O
b = O=[N+]([O-])c1ccc2c(OC(F)F)ccnc2c1O
c = COCCCOC1CCN(c2ccnc3c(O)c([N+](=O)[O-])cc(Cl)c23)CC1.Cl.Cl
Query: Returns the items ordered by MIC, from maximum to minimum. I'd appreciate it if you listed the labels in the requested order.
Response: a, c, b
(a: 128 µg/mL, c: 16 µg/mL, b: 8 µg/mL)

====

Test system: Escherichia coli (carbapenem-resistant clinical isolate; ATCC25922)
Test: MIC by micro broth dilution (CLSI), Escherichia coli
Type: cell-based
Conditions: Escherichia coli; clinical strains; micro broth dilution, CAMHB, 35±2° C., 20 hours; read-out: MIC50 Escherichia coli Clinical strain
resultType: MIC50 (µg/mL)

O=[N+]([O-])c1c(Br)c(F)c2cccnc2c1O: 16

1 = O=[N+]([O-])c1c(Cl)c(F)c2cccnc2c1O
2 = O=[N+]([O-])c1cc(Br)c2cccnc2c1O
3 = O=[N+]([O-])c1c(F)cc2cccnc2c1O
Query: rank_up(items): orders items by reported MIC50 in ascending numerical order. I'd appreciate it if you listed the labels in the requested order.
Response: 1, 3, 2
(1: 16 µg/mL, 3: 64 µg/mL, 2: 128 µg/mL)

====

Test: MIC by micro broth dilution (CLSI), Klebsiella pneumoniae
Assay type: cell-based
Settings: Standard strain
resultType: MIC90 (µg/mL)

Below, each entry is followed by its recorded MIC90 result.
Cc1cc2cccnc2c(O)c1[N+](=O)[O-]: 64
O=[N+]([O-])c1ccc2c(C3CC3)ccnc2c1O: 64
Cc1cnc2c(O)c([N+](=O)[O-])ccc2c1: 32

P = O=[N+]([O-])c1ccc2cccnc2c1O
Q = O=[N+]([O-])c1ccc(O)c2ncccc12 [Nitroxoline, nitroxoline, reference compound]
Query: Of P and Q , whose reported MIC90 is the larger number? Answer with the label corresponding to your selection.
Response: P
(P: 64 µg/mL, Q: 16 µg/mL)

====

Tested on: Bladder cancer cell line UM-UC-3
Test: Inhibitory activity on cancer cells, CellTiter-Glo viability, UM-UC-3
Assay type: cell-based
Conditions: Homo sapiens, UMUC3, 72 hours treatment
Protocol: HUVEC (purchased from Allcells Biological Technology (Shanghai) Co., Ltd.); UM-UC-3 (ATCC); LNCaP (ATCC); RM-1 (purchased from Nanjing Cobioer Biosciences Co., Ltd.) (1) On the first day, the cells were seeded in a 96-well plate, and the previous medium was poured off. 5 mL of DPBS was added to wash the cells, and then removed by a pipette and discarded. […] New corresponding medium was added, and pipetted to resuspend the cells evenly, and the cells were then counted with an automated cell counter. […]
pIC50: −log10 of the molar value.
resultType: pIC50

Below, each entry is followed by its recorded pIC50 result.
CC(C)C(=O)N1CCN(c2ccnc3c(O)c([N+](=O)[O-])cc(Cl)c23)CC1: 5.47
Cc1cnc2c(O)c([N+](=O)[O-])ccc2c1: 5.42
O=[N+]([O-])c1cc(Cl)c2c(OCC3CC3)ccnc2c1O: 6.07
O=[N+]([O-])c1ccc2c(C(F)(F)F)ccnc2c1O: 4.95
O=[N+]([O-])c1ccc2c(N3CCOCC3)ccnc2c1O: 5.21
O=[N+]([O-])c1cc(Cl)c2c(C3CCCCC3)ccnc2c1O: 5.91
Cl.O=[N+]([O-])c1cc(Cl)c2c(C(F)(F)F)ccnc2c1O [Example 73, hydrochloride]: 5.30
O=[N+]([O-])c1ccc2c(-n3ccnc3)ccnc2c1O: 4.44
CC(C)OC(=O)N1CCN(c2ccnc3c(O)c([N+](=O)[O-])cc(Cl)c23)CC1: 5.59
O=[N+]([O-])c1cc(Cl)c2c(N3CCC(F)(F)CC3)ccnc2c1O: 5.65

I = O=[N+]([O-])c1cc(Cl)c2c(Oc3ccccc3)ccnc2c1O
II = CC1CCCCN1c1ccnc2c(O)c([N+](=O)[O-])ccc12 (centres unmarked)
III = CN(C)c1ccnc2c(O)c([N+](=O)[O-])ccc12
Query: rank_up(items): orders items by reported pIC50 in ascending numerical order. I'd appreciate it if you listed the labels in the requested order.
Response: III, II, I

a = COC(=O)[C@@H]1CCCN1c1ccnc2c(O)c([N+](=O)[O-])ccc12
b = COc1ccnc2c(O)c([N+](=O)[O-])cc(Cl)c12
Query: Of a and b , whose reported pIC50 is the larger number? Answer with the label corresponding to your selection.
Response: b
(b: 4.85, a: 4.37)

P = CN(C)C(=O)N1CCN(c2ccnc3c(O)c([N+](=O)[O-])ccc23)CC1
Q = O=[N+]([O-])c1cc(F)c2c(N3CCC(F)(F)CC3)ccnc2c1O
R = O=[N+]([O-])c1cc(F)c2c(Cl)ccnc2c1O
S = O=[N+]([O-])c1ccc2cccnc2c1O
Query: rank_up(items): orders items by reported pIC50 in ascending numerical order. I'd appreciate it if you listed the labels in the requested order.
Response: P, R, S, Q
(P: 4.35, R: 4.76, S: 5.03, Q: 5.32)

P = COc1ccnc2c(O)c([N+](=O)[O-])ccc12
Q = CC(=O)N1CCN(c2ccnc3c(O)c([N+](=O)[O-])cc(Cl)c23)CC1
R = O=[N+]([O-])c1cc(Cl)c2c(Cl)ccnc2c1O
S = CC1(C)CCN(c2ccnc3c(O)c([N+](=O)[O-])cc(Cl)c23)CC1
Query: Returns the items ordered by pIC50, from maximum to minimum. I'd appreciate it if you listed the labels in the requested order.
Response: S, P, R, Q

a = COC1CCN(c2ccnc3c(O)c([N+](=O)[O-])cc(Cl)c23)CC1
b = O=[N+]([O-])c1cc(Cl)c2c(N3CCC(C(F)(F)F)CC3)ccnc2c1O
c = O=[N+]([O-])c1ccc2c(N3CCCC3)ccnc2c1O
d = O=[N+]([O-])c1cc(Cl)c2c(C3CC3)ccnc2c1O
e = CN1CCN(c2ccnc3c(O)c([N+](=O)[O-])ccc23)CC1
Query: rank_up(items): orders items by reported pIC50 in ascending numerical order. I'd appreciate it if you listed the labels in the requested order.
Response: c, e, a, d, b
(c: 4.42, e: 4.88, a: 5.17, d: 5.39, b: 6.02)

1 = CCOc1ccnc2c(O)c([N+](=O)[O-])cc(Cl)c12
2 = O=[N+]([O-])c1ccc2c(C3CCCCC3)ccnc2c1O
3 = COc1c(C2CC2)cnc2c(O)c([N+](=O)[O-])ccc12
Query: rank_up(items): orders items by reported pIC50 in ascending numerical order. I'd appreciate it if you listed the labels in the requested order.
Response: 3, 1, 2
